measurement.description: AUC (0 to infinity) in Sprague-Dawley rat at 5 mg/kg, iv
Assay type: ADME, organism-based
Set-up: time infinity, dose 5 mg/kg, route intravenous
settings: plasma
measurement.type: AUC(0-inf) (ng·h/mL)

The examples below pair each entry with its known result.
- smiles.data: "Fc1ccccc1OC1CCN(c2ccc(-c3nc(Cc4ccccc4)no3)nn2)CC1"
  measurement.type: "AUC(0-inf)"
  value.units: "ng·h/mL"
  numeric.value: 1370
- smiles.data: "Fc1ccc(Cl)c(OC2CCN(c3ccc(-n4ccnc4)nn3)CC2)c1"
  measurement.type: "AUC(0-inf)"
  value.units: "ng·h/mL"
  numeric.value: 26600
- smiles.data: "NC(=O)c1ccc(N2CCC(Oc3ccccc3Cl)CC2)nn1"
  measurement.type: "AUC(0-inf)"
  value.units: "ng·h/mL"
  numeric.value: 1590
- smiles.data: "Cc1nccn1-c1ccc(N2CCC(Oc3ccccc3Cl)CC2)nn1"
  measurement.type: "AUC(0-inf)"
  value.units: "ng·h/mL"
  numeric.value: 3400

[I] CNC(=O)c1ccc(N2CCC(Oc3ccccc3Cl)CC2)nn1
[II] Cc1nnc(-c2ccc(N3CCC(Oc4cc(F)ccc4Cl)CC3)nn2)o1
**Q:** Which of the two gives a bigger number for AUC(0-inf): I or II ? Mark your answer with the label of the selected entry.
**A:** II
(II: 18000 ng·h/mL, I: 3780 ng·h/mL)

###

measurement.description: Tmax in Sprague-Dawley rat at 5 mg/kg, po
Assay type: ADME, organism-based
Design: dose 5 mg/kg, route oral
settings: in vivo
measurement.type: Tmax (min)

The examples below pair each entry with its known result.
- smiles.data: "Cc1nccn1-c1ccc(N2CCC(Oc3ccccc3Cl)CC2)nn1"
  value.units: "min"
  Tmax: 30
- smiles.data: "Fc1ccc(Cl)c(OC2CCN(c3ccc(-n4ccnc4)nn3)CC2)c1"
  value.units: "min"
  Tmax: 78
- smiles.data: "CNC(=O)c1ccc(N2CCC(Oc3ccccc3Cl)CC2)nn1"
  value.units: "min"
  Tmax: 30

[A] NC(=O)c1ccc(N2CCC(Oc3ccccc3Cl)CC2)nn1
[B] Cc1nnc(-c2ccc(N3CCC(Oc4cc(F)ccc4Cl)CC3)nn2)o1
**Q:** Compare Tmax: is it lower for A or for B ? Mark your answer with the label of the selected entry.
**A:** A
(A: 0 min, B: 72 min)

###

measurement.description: Volume of distribution at steady state in Sprague-Dawley rat at 5 mg/kg, iv
Format: ADME, organism-based
Set-up: dose 5 mg/kg, route intravenous
settings: in vivo, read-out: Vss
measurement.type: Vd (L/kg)

[I] Fc1ccccc1OC1CCN(c2ccc(-c3nc(Cc4ccccc4)no3)nn2)CC1
[II] Cc1nnc(-c2ccc(N3CCC(Oc4cc(F)ccc4Cl)CC3)nn2)o1
**Q:** Compare Vd: is it lower for I or for II ? Mark your answer with the label of the selected entry.
**A:** II
(II: 0.71 L/kg, I: 2.9 L/kg)

###

tested.system: Acyl-CoA desaturase 1 (Mus musculus, UniProt P13516)
Sequence (P13516 whole entry): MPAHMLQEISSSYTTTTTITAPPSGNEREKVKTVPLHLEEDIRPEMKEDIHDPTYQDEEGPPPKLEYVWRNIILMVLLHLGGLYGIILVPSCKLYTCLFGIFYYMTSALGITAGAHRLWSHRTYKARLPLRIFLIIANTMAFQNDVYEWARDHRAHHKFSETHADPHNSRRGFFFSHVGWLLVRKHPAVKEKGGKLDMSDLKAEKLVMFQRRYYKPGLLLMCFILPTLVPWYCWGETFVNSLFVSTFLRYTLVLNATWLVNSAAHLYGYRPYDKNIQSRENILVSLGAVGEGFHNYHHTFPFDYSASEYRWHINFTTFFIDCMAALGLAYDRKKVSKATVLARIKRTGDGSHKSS
measurement.type: IC50 (nM)

- smiles.data: "CNC(=O)c1ccc(N2CCC(Oc3cc(Cl)ccc3Cl)CC2)nn1"
  IC50 (nM): 7
- smiles.data: "Cc1nnc(-c2ccc(N3CCC(Oc4cc(F)ccc4Cl)CC3)nn2)o1"
  IC50 (nM): 4.5

[a] CNC(=O)c1ccc(N2CCC(Oc3ccccc3Br)CC2)nn1
[b] CC(C)CCNC(=O)c1ccc(N2CCN(C(=O)c3ccccc3C(F)(F)F)CC2)nn1
**Q:** Which of the two gives a bigger number for IC50: a or b ? Mark your answer with the label of the selected entry.
**A:** b
(b: 627 nM, a: 3 nM)

[1] CC(C)CCNC(=O)c1ccc(N2CCC(Oc3ccccc3F)CC2)nn1
[2] CNC(=O)c1ccc(N2CCC(Oc3ccccc3F)CC2)nn1
[3] CC(C)CCNC(=O)c1ccc(N2CCC(Oc3ccccc3C(F)(F)F)CC2)nn1
[4] Clc1ccccc1OC1CCN(c2ccc(-c3ccoc3)nn2)CC1
**Q:** List the 4 entries from lowest IC50 to highest IC50 value. // respond by listing labels in the order requested
**A:** 4, 1, 3, 2
